Data provenance is patent US7919488B2.

Target: recombinant CYP3A4-b5 enzyme (Baculosomes®) (Homo sapiens, UniProt P08684)
Construct: purchased Invitrogen (Carlsbad, Calif.)
Sequence (P08684 whole entry): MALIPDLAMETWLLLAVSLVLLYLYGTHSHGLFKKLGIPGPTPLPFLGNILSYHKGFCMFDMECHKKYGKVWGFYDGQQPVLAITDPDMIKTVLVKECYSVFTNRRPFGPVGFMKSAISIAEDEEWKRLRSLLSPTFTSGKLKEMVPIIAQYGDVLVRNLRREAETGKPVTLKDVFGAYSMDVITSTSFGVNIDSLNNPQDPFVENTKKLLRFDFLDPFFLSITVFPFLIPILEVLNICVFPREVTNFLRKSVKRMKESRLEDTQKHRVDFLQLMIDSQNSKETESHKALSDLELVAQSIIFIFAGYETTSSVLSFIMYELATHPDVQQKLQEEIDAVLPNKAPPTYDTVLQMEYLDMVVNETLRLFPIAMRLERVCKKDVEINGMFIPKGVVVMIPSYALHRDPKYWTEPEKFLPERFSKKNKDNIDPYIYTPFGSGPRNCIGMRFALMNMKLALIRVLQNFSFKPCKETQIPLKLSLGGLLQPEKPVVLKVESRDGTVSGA
Test: Kiapp against recombinant CYP3A4 enzyme (Baculosomes), BFC substrate
Format: biochemical
Conditions: recombinant CYP3A4-b5 (Invitrogen), 5 uM BFC, 200 uM NADPH, pre-incubation at least 30 minutes, pH 7.0, room temperature
Measured Ki accompanies every entry in the list below.
I'd appreciate it if you wrote the number followed by its unit.

Below: 5 compounds and their reported Ki.
compound: CCS(=O)(=O)NC1CCN(C(=O)Cn2nc(-c3ccncc3)cc2Cc2ccc(F)cc2)CC1
Ki: 0.107 µM

compound: O=C(Cn1nc(-c2ccncc2)cc1Cc1ccc(F)cc1)N1CC(O)C1
Ki: 0.378 µM

compound: CC(=O)N[C@@H]1CCN(C(=O)Cn2nc(-c3ccncc3)cc2Cc2ccc(F)cc2)C1
Ki: 0.298 µM

compound: O=C(Cn1nc(-c2ccncc2)cc1Cc1ccc(F)cc1)NC1CCC1
Ki: 0.034 µM

compound: Cn1ccnc1CNC(=O)Cn1nc(-c2ccncc2)cc1Cc1ccc(F)cc1
Ki: 0.108 µM

Write Ki of "Fc1ccc(Cc2cc(-c3ccncc3)nn2Cc2nc(N3CCOCC3)no2)cc1" ; system used: recombinant CYP3A4-b5 enzyme (Baculosomes®) (Homo sapiens, UniProt P08684)
0.0238 µM

Give measured Ki for CC(Cc1cnccn1)NC(=O)Cn1nc(-c2ccncc2)cc1Cc1ccc(F)cc1 (stereo not drawn) (recombinant CYP3A4-b5 enzyme (Baculosomes®) (Homo sapiens, UniProt P08684)).
0.109 µM

Give Ki for "O=C(Cn1nc(-c2ccncc2)cc1Cc1ccc(F)cc1)N1CCC(N2CCCS2(=O)=O)CC1" tested on recombinant CYP3A4-b5 enzyme (Baculosomes®) (Homo sapiens, UniProt P08684).
0.003 µM

GET Ki where system = recombinant CYP3A4-b5 enzyme (Baculosomes®) (Homo sapiens, UniProt P08684) and item = COC(=O)N(C)C1CCN(C(=O)Cn2nc(-c3ccncc3)cc2Cc2ccc(F)cc2)C1 (stereo not drawn)
0.0488 µM

// fetch Ki for CC(O)Cn1nc(-c2ccncc2)cc1Cc1ccc(F)cc1 (stereo not drawn) ; system: recombinant CYP3A4-b5 enzyme (Baculosomes®) (Homo sapiens, UniProt P08684)
0.175 µM

Provide recombinant CYP3A4-b5 enzyme (Baculosomes®) (Homo sapiens, UniProt P08684) Ki reading for "NC(=O)[C@@H]1CCC[C@@H]1NC(=O)Cn1nc(-c2ccncc2)cc1Cc1ccc(F)cc1" .
0.156 µM

Look up and report measured Ki (recombinant CYP3A4-b5 enzyme (Baculosomes®) (Homo sapiens, UniProt P08684)) for the following compound: "CCS(=O)(=O)N(C)C1CCN(C(=O)Cn2nc(-c3ccncc3)cc2Cc2ccc(F)cc2)CC1"
0.0158 µM

Name the value of Ki reported for "CC(C)NC(=O)N(C)C1CCN(C(=O)Cn2nc(-c3ccncc3)cc2Cc2ccc(F)cc2)CC1" when tested on recombinant CYP3A4-b5 enzyme (Baculosomes®) (Homo sapiens, UniProt P08684).
0.0369 µM

Provide recombinant CYP3A4-b5 enzyme (Baculosomes®) (Homo sapiens, UniProt P08684) Ki reading for "Fc1ccc(Cc2cc(-c3ccncc3)nn2C2CN(C(c3ccccc3)c3ccccc3)C2)cc1" .
0.0365 µM

Using recombinant CYP3A4-b5 enzyme (Baculosomes®) (Homo sapiens, UniProt P08684) as the test system, report measured Ki of "CN(C)[C@H]1CCN(C(=O)Cn2nc(-c3ccncc3)cc2Cc2ccc(F)cc2)C1" .
0.211 µM

Look up recombinant CYP3A4-b5 enzyme (Baculosomes®) (Homo sapiens, UniProt P08684) data: Ki of O=C(Cn1nc(-c2ccncc2)cc1Cc1ccc(F)cc1)N1CCCC(O)C1 (stereo not drawn) , then report it.
0.117 µM

Param request: Ki | system recombinant CYP3A4-b5 enzyme (Baculosomes®) (Homo sapiens, UniProt P08684) | item "Fc1ccc(Cc2cc(-c3ccncc3)n[nH]2)cc1"
0.0557 µM

State recorded Ki with recombinant CYP3A4-b5 enzyme (Baculosomes®) (Homo sapiens, UniProt P08684), entry "CS(=O)(=O)NC1CCN(C(=O)Cn2nc(-c3c[nH]cn3)cc2Cc2ccc(F)cc2)CC1" , no comment.
0.314 µM

---

Biological target: CYP3A4 (Homo sapiens)
Construct: 0.1 mg/mL human liver microsomes; from tissue; host or cells: human liver microsomes
Assay: IC50 against CYP3A4 by inhibition of testosterone metabolism in human liver microsomes
Assay type: biochemical
Conditions: 0.1 mg/mL human liver microsomes, 25 μM testosterone, 1 mM NADPH, 6-β-OH-testosterone production, eight minutes; read-out: IC50, μM (HLM, testosterone)
Entries and their IC50

compound: CC(C)(CN1CCOCC1)NC(=O)Cn1nc(-c2ccncc2)cc1Cc1ccc(F)cc1
val: < 0.012 µM
//
compound: Fc1ccc(Cc2cc(-c3ccncc3)n[nH]2)cc1
val: < 0.022 µM
//
compound: O=C(Cn1nc(-c2ccncc2)cc1Cc1ccc(F)cc1)N1CCN(c2ncccn2)CC1
val: < 0.012 µM

Recall the reported IC50 of "OCCn1nc(-c2ccncc2)cc1Cc1ccc(F)cc1" on CYP3A4 (Homo sapiens) and write it down.
0.054 µM

Give reported IC50 for "CN1CCN(C(=O)Cn2nc(-c3ccncc3)cc2Cc2ccc(F)cc2)CC1" (CYP3A4 (Homo sapiens))
0.038 µM

Look up and report measured IC50 (CYP3A4 (Homo sapiens)) for the following compound: "O=C(Cn1nc(-c2ccncc2)cc1Cc1ccc(F)cc1)NC1CCC1"
0.095 µM

Recall the reported IC50 of "COC(=O)Cn1nc(-c2ccncc2)cc1Cc1ccc(F)cc1" on CYP3A4 (Homo sapiens) and write it down.
0.956 µM

Tell me its IC50 on CYP3A4 (Homo sapiens): "CN(C(=O)Cn1nc(-c2ccncc2)cc1Cc1ccc(F)cc1)[C@H]1CC[C@H](O)CC1"
0.0235 µM

Answer briefly: IC50 recorded on CYP3A4 (Homo sapiens) for "Cc1cc(CNC(=O)Cn2nc(-c3ccncc3)cc2Cc2ccc(F)cc2)on1"
0.013 µM

// fetch IC50; item: "CN(C(=O)Cn1nc(-c2ccncc2)cc1Cc1ccc(F)cc1)[C@H]1CC[C@@H](O)CC1" ; system: CYP3A4 (Homo sapiens)
0.021 µM

Fill in: IC50 on CYP3A4 (Homo sapiens), entry "CN(C)C(=O)c1noc(Cn2nc(-c3ccncc3)cc2Cc2ccc(F)cc2)n1"
0.021 µM

Lab note: CYP3A4 (Homo sapiens) assay, enter IC50 for "CC(C)NC(=O)NC1CCN(C(=O)Cn2nc(-c3ccncc3)cc2Cc2ccc(F)cc2)CC1" here
0.035 µM

Please report IC50 with CYP3A4 (Homo sapiens) for item "O=C(Cn1nc(-c2ccncc2)cc1Cc1ccc(F)cc1)N1CCC(N2CCCCC2=O)CC1" .
0.023 µM

Report the value of IC50 obtained on CYP3A4 (Homo sapiens) for "O=C(Cn1nc(-c2ccncc2)cc1Cc1ccc(F)cc1)N[C@H]1CC[C@H](O)CC1" .
< 0.0225 µM

---

Biological target: CYP3A4 (Homo sapiens)
Construct: 0.1 mg/mL human liver microsomes; from tissue; host or cells: human liver microsomes
Experiment: IC50 against CYP3A4 by inhibition of midazolam metabolism in human liver microsomes
Format: biochemical
Conditions: 0.1 mg/mL human liver microsomes, 2 μM midazolam, 1 mM NADPH, 1-hydroxymidazolam production, eight minutes; read-out: IC50, μM (HLM, midazolam)
readout_label: IC50

compound: O=C(Cn1nc(-c2ccncc2)cc1Cc1ccc(F)cc1)N[C@H]1CC[C@H](O)CC1 [Example 96]
measurement_target: CYP3A4 (Homo sapiens)
IC50: < 0.013 µM
//
compound: CC(C)C(=O)N(C)C1CCN(C(=O)Cn2nc(-c3ccncc3)cc2Cc2ccc(F)cc2)CC1 [Example 11]
measurement_target: CYP3A4 (Homo sapiens)
IC50: < 0.003 µM

Pending compound:
// fetch IC50 for O=C(Cn1nc(-c2ccncc2)cc1Cc1ccc(F)cc1)N1CCCC(O)C1 (stereo not drawn) [Example 76] ; system: CYP3A4 (Homo sapiens)
< 0.0184 µM

---

Biological target: CYP3A4 (Homo sapiens, UniProt P08684)
Construct: 0.1 mg/mL human liver microsomes; from tissue; host or cells: human liver microsomes
Sequence (P08684 whole entry): as above
Assay: IC50 against CYP3A4 by inhibition of midazolam metabolism in human liver microsomes
Type: biochemical
Settings: 0.1 mg/mL human liver microsomes, 2 μM midazolam, 1 mM NADPH, 1-hydroxymidazolam production, eight minutes; read-out: IC50, μM (HLM, midazolam)
readout_label: log10(IC50) (log10 of the value in µM)
On a log10 scale: recorded IC50, unit µM.

compound: COC(=O)N[C@H]1CCN(C(=O)Cn2nc(-c3ccncc3)cc2Cc2ccc(F)cc2)C1
log10(IC50): -1.82
--
compound: CCNC(=O)N(C)C1CCN(C(=O)Cn2nc(-c3ccncc3)cc2Cc2ccc(F)cc2)CC1
log10(IC50): -2.40
--
compound: Cc1cc(CNC(=O)Cn2nc(-c3ccncc3)cc2Cc2ccc(F)cc2)no1
log10(IC50): -1.62
--
compound: O=C(Cn1nc(-c2ccncc2)cc1Cc1ccc(F)cc1)N1CC(O)C1
log10(IC50): -0.97
--
compound: CCOC(=O)N(C)C1CCN(C(=O)Cn2nc(-c3ccncc3)cc2Cc2ccc(F)cc2)CC1
log10(IC50): -2.05
--
compound: CN(C)[C@H]1CCN(C(=O)Cn2nc(-c3ccncc3)cc2Cc2ccc(F)cc2)C1
log10(IC50): -1.74

Determine from records and report log10(IC50) for "COC(=O)NC1CN(C(=O)Cn2nc(-c3ccncc3)cc2Cc2ccc(F)cc2)C1"
-1.60

Output log10(IC50) of CS(=O)(=O)C1CCN(C(=O)Cn2nc(-c3ccncc3)cc2Cc2ccc(F)cc2)C1 (stereo not drawn)
-1.64

Read off the recorded log10(IC50) for "CC(C)NC(=O)N(C)C1CCN(C(=O)Cn2nc(-c3ccncc3)cc2Cc2ccc(F)cc2)CC1"
-2.15

Tell us which log10(IC50) value is on record for "Cc1c(CNC(=O)Cn2nc(-c3ccncc3)cc2Cc2ccc(F)cc2)cnn1C"
-1.80

Indicate the recorded log10(IC50) value for this compound: "O=C(c1ncc[nH]1)N1CC(n2nc(-c3ccncc3)cc2Cc2ccc(F)cc2)C1"
-1.57
